Molecular target: recombinant nucleolin (Homo sapiens)
Construct: without the N-terminal acidic stretches domain
Sequence (P19338 284-710 limits assumed): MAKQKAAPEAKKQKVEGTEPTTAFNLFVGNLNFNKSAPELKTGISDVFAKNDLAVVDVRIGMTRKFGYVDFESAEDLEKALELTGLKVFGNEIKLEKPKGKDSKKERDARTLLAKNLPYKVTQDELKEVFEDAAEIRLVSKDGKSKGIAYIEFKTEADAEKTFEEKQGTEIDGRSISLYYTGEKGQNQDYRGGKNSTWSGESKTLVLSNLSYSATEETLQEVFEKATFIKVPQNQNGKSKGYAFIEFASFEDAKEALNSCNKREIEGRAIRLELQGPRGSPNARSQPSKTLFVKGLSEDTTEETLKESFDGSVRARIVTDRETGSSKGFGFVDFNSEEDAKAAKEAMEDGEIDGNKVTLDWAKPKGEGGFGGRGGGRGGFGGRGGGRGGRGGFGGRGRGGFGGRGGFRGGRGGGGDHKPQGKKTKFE
Experiment: Nucleolin/nucleic acid ligand interaction, gel retardation assay
Format: binding
Set-up: key: A “+” represents the weakest nucleolin affinity; a “++++” represents the strongest nucleolin affinity
Conditions: relative affinity of each nucleic acid ligand for nucleolin; nucleolin ~250 nM, 32P-labeled ligand 10 or 250 nM, 30 minutes at room temperature
PROPERTY LABEL: Affinity for Nucleolin

Query block: Affinity for Nucleolin for 11028NT: human rDNA-derived DNA oligonucleotide GGGGCGCGGCGGGGGGAGAAGGGTCGGGGCGGCAGGGG (chemistry not given here) [Compound 11028NT] ?
Result block: +

Query block: Entry 7733T: human rDNA-derived DNA oligonucleotide GGGAGGGGCACGGGCCGGGGGCGGGACGGG (chemistry not given here) [Compound 7733T] please
Result block: +

Query block: Entry 8749NT: human rDNA-derived DNA oligonucleotide GGGAGGGCGCGCGGGTCGGGG (chemistry not given here) [Compound 8749NT] please
Result block: +

Query block: Entry 6183NT: human rDNA-derived DNA oligonucleotide GGGTCGGGGGCGGTGGTGGGCCCGCGGGGG (chemistry not given here) [Compound 6183NT] please
Result block: +

Then this substance:
Query block: Affinity for Nucleolin for 8511NT: human rDNA-derived DNA oligonucleotide GGGGGTGGGCGGGCGGGGCCGGGGGTGGG (chemistry not given here) [Compound 8511NT] ?
Result block: ++++
